Tested on: K562
Test: Cytotoxicity against human K562 cells assessed as cellular growth at 10 uM by SRB assay
Format: functional
# Lookup of reported Activity keyed by entry
Write it as a number; the unit % goes unstated.

>>> experimental_value("Cc1ccccc1NC(=O)c1sc2nc3c(cc2c1N)C(=O)CCC3")
22.15
>>> experimental_value("O=C(Nc1nc2ccc(Cl)cc2s1)c1ccc(Cl)cc1Cl")
86.31
>>> experimental_value("CC1(C)CCc2cc(-c3ccn(S(=O)(=O)c4ccc(Cl)cc4)n3)ccc2O1")
52.43
>>> experimental_value("Cc1ccc(C(=O)/C=C2/Nc3ccc(C)cc3OC2=O)cc1")
95.07
>>> experimental_value("O=C(NCCc1ccccc1)c1[nH]c2ccccc2c1Cl")
74.92

Kindly review the next molecule as well.
Notebook: "O=C(Nc1nc2ccc(Cl)cc2s1)c1ccc(Cl)cc1" , Activity read as 96.27

----------
System: K562
Assay: Cytotoxicity against human K562 cells assessed as cellular growth at 10 uM by SRB assay
Assay type: functional
The entries below come with measured Activity values attached.

Some molecules with recorded Activity:
>>> experimental_value("COc1ccc(Cl)cc1C(=O)Nc1nc2ccc(Cl)cc2s1")
"86.76%"
>>> experimental_value("Cc1ccc(C2=N/C(=C\\c3ccccc3)C(=O)O2)cc1")
"106.22%"
>>> experimental_value("CC1(C)CCc2cc(-c3ccn(S(=O)(=O)c4ccccc4Cl)n3)ccc2O1")
"43%"
>>> experimental_value("Cc1ccc(NC(=O)c2sc3nc(-c4cccs4)ccc3c2N)cc1C")
"90.31%"
>>> experimental_value("O=C(Nc1ccc2oc(=O)ccc2c1)c1ccc(-c2ccc(Cl)c(Cl)c2)o1")
"65.27%"
>>> experimental_value("CC1(C)CC(=O)c2cc3c(N)c(C(=O)Nc4ccccc4Cl)sc3nc2C1")
"96.43%"
>>> experimental_value("Nc1c(C(=O)Nc2ccccc2)sc2nc3c(cc12)C(=O)CCC3")
"17.06%"
>>> experimental_value("c1ccc(-c2nc(-c3cccs3)no2)cc1")
"100.51%"
>>> experimental_value("O=C(NCc1ccc(Cl)cc1)c1[nH]c2ccccc2c1Cl")
"102.78%"
>>> experimental_value("O=C(NCCc1ccc(Cl)cc1)c1[nH]c2ccccc2c1Cl")
"67.44%"

Please fill in: Activity reported for "Cc1cc(C)c(NC(=O)c2sc3nc4c(cc3c2N)C(=O)CCC4)c(C)c1" = 19.79%

Please fill in: Activity reported for "O=C(NCCc1ccccc1)c1cc2cccc([N+](=O)[O-])c2[nH]1" = 82.43%

The molecule listed as "Clc1ccccc1Nc1nnc(-c2ccncc2)s1" has a reported Activity of 101.4%

Given item "Cc1ccc(NC(=O)c2sc3nc4c(cc3c2N)C(=O)CCC4)cc1Cl" , the value recorded as its Activity is 92.98%

# molecule "Cc1ccc2c(c1)N/C(=C/C(=O)c1ccc(Cl)cc1)C(=O)O2" ; its Activity = 99.7%

Item: "Clc1cccc(-c2nc(-c3cccs3)no2)c1" | Activity: 100.73%

GET /value?item= "O=C1N=C(c2ccccc2)S/C1=C\c1ccc2c(c1)OCO2" &field=Activity returns 73.5%

Kindly note the recorded Activity for "Nc1c(C(=O)Nc2ccc(Cl)c(Cl)c2)sc2nc(-c3cccs3)ccc12" , which is 86.57%

// Activity value for "COc1ccc2nc(NC(=O)c3ccc(F)cc3)sc2c1" : 82.42%

Value of measured Activity for the entry "COc1ccc(NC(=O)c2sc3nc4c(cc3c2N)C(=O)CCC4)cc1" : 116.6%
